Where do these numbers come from? They come from the supplement of paper PMC10307832.

System: HCC-366
PROCEDURE_TEXT: relative viability (nuclei count vs DMSO), 5 days (fraction); higher = more cells survive
STATED_CONDITIONS: first compound 0.253 µM
EXPERIMENTAL_ENDPOINT: relative viability
Please reply with the value in numeric form only.

MOLECULE	relative viability
Cc1cnc(-c2cnc(NCCNc3ccc(C#N)cn3)nc2-c2ccc(Cl)cc2Cl)[nH]1 + NC(=O)Nc1cc(-c2cccc(F)c2)sc1C(=O)N[C@H]1CCCNC1 [AZD7762] (partner 0.2 µM)	0.202
Cc1cnc(-c2cnc(NCCNc3ccc(C#N)cn3)nc2-c2ccc(Cl)cc2Cl)[nH]1 + O=C(CCCCCCC(=O)Nc1ccccc1)NO [Vorinostat] (partner 1 µM)	0.24

Exam item: Need relative viability of Cc1cnc(-c2cnc(NCCNc3ccc(C#N)cn3)nc2-c2ccc(Cl)cc2Cl)[nH]1 + CC(=O)Nc1cccc(-n2c(=O)n(C3CC3)c(=O)c3c(Nc4ccc(I)cc4F)n(C)c(=O)c(C)c32)c1 [Trametinib] (partner 0.02 µM) , thanks.
Marked response: 0.308

Exam item: Need relative viability of O=c1[nH]c2ccccc2n1C1CCN(CCCC(c2ccc(F)cc2)c2ccc(F)cc2)CC1 [Pimozide] + COc1cc2c(Oc3ccc(NC(=O)C4(C(=O)Nc5ccc(F)cc5)CC4)cc3F)ccnc2cc1OCCCN1CCOCC1 [Foretinib] (partner 0.25 µM) , thanks.
Marked response: 0.952

Exam item: Need relative viability of O=c1[nH]c2ccccc2n1C1CCN(CCCC(c2ccc(F)cc2)c2ccc(F)cc2)CC1 [Pimozide] + COc1cccc2cc(-c3nc([C@H]4CC[C@H](C(=O)O)CC4)n4ncnc(N)c34)[nH]c12 [OSI-027] (partner 0.5 µM) , thanks.
Marked response: 0.795

Exam item: Need relative viability of O=c1[nH]c2ccccc2n1C1CCN(CCCC(c2ccc(F)cc2)c2ccc(F)cc2)CC1 [Pimozide] + Cc1cc(Nc2cc(N3CCN(C)CC3)nc(Sc3ccc(NC(=O)C4CC4)cc3)n2)n[nH]1 [Tozasertib] (partner 0.1 µM) , thanks.
Marked response: 0.0803

====

Test system: SK-MES-1
PROCEDURE_TEXT: relative viability (nuclei count vs DMSO), 5 days (fraction); higher = more cells survive
STATED_CONDITIONS: first compound 0.005 µM
EXPERIMENTAL_ENDPOINT: relative viability

Exam item: Need relative viability of Nc1ccn([C@@H]2O[C@H](CO)[C@@H](O)[C@@H]2O)c(=O)n1 [Cytarabine] + O=C(CCCCCCC(=O)Nc1ccccc1)NO [Vorinostat] (partner 1 µM) , thanks.
Marked response: 0.851

Exam item: Need relative viability of Nc1ccn([C@@H]2O[C@H](CO)[C@@H](O)[C@@H]2O)c(=O)n1 [Cytarabine] + N=C(N)NC(=N)NCCc1ccccc1 [Phenformin] (partner 250 µM) , thanks.
Marked response: 0.44

Exam item: Need relative viability of Nc1ccn([C@@H]2O[C@H](CO)[C@@H](O)[C@@H]2O)c(=O)n1 [Cytarabine] + C[C@]1(O)C[C@@H](c2nc(-c3ccc4ccc(-c5ccccc5)nc4c3)c3c(N)nccn32)C1 [Linsitinib] (partner 1 µM) , thanks.
Marked response: 0.905

Exam item: Need relative viability of Nc1ccn([C@@H]2O[C@H](CO)[C@@H](O)[C@@H]2O)c(=O)n1 [Cytarabine] + Nc1ncn([C@H]2C[C@H](O)[C@@H](CO)O2)c(=O)n1 [Decitabine] (partner 2 µM) , thanks.
Marked response: 0.29

Exam item: Need relative viability of Nc1ccn([C@@H]2O[C@H](CO)[C@@H](O)[C@@H]2O)c(=O)n1 [Cytarabine] + CC(=O)c1c(C)c2cnc(Nc3ccc(N4CCNCC4)cn3)nc2n(C2CCCC2)c1=O [Palbociclib] (partner 0.5 µM) , thanks.
Marked response: 0.297

====

# maps each entry to its relative viability
Test system: NCI-H1993
PROCEDURE_TEXT: relative viability (nuclei count vs DMSO), 5 days (fraction); higher = more cells survive
STATED_CONDITIONS: first compound 2.53 µM
Please reply with the value in numeric form only.

COMPOUND	EXPERIMENTAL_ENDPOINT	ASSAY_VALUE
O=c1[nH]c2ccccc2n1C1CCN(CCCC(c2ccc(F)cc2)c2ccc(F)cc2)CC1 [Pimozide] + Cc1nc(NC(=O)N2CCC[C@H]2C(N)=O)sc1-c1ccnc(C(C)(C)C(F)(F)F)c1 [Alpelisib] (partner 2 µM)	relative viability	0.734
Cc1cnc(-c2cnc(NCCNc3ccc(C#N)cn3)nc2-c2ccc(Cl)cc2Cl)[nH]1 + Nc1nc2[nH]cc(CCc3ccc(C(=O)N[C@@H](CCC(=O)O)C(=O)O)cc3)c2c(=O)[nH]1 [Pemetrexed] (partner 0.2 µM)	relative viability	0.519
Cc1cnc(-c2cnc(NCCNc3ccc(C#N)cn3)nc2-c2ccc(Cl)cc2Cl)[nH]1 + Cc1nc(NC(=O)N2CCC[C@H]2C(N)=O)sc1-c1ccnc(C(C)(C)C(F)(F)F)c1 [Alpelisib] (partner 2 µM)	relative viability	0.694

Exam item: Need relative viability of O=c1[nH]c2ccccc2n1C1CCN(CCCC(c2ccc(F)cc2)c2ccc(F)cc2)CC1 [Pimozide] + C[C@@H](Oc1cc(-c2cnn(C3CCNCC3)c2)cnc1N)c1c(Cl)ccc(F)c1Cl [Crizotinib] (partner 1 µM) , thanks.
Marked response: 0.859

====

Test system: HCC-44
PROCEDURE_TEXT: relative viability (nuclei count vs DMSO), 5 days (fraction); higher = more cells survive
STATED_CONDITIONS: first compound 0.1581 µM
EXPERIMENTAL_ENDPOINT: relative viability

Exam item: Need relative viability of Nc1ccn([C@@H]2O[C@H](CO)[C@@H](O)[C@@H]2O)c(=O)n1 [Cytarabine] + Cc1cc(Nc2cc(N3CCN(C)CC3)nc(Sc3ccc(NC(=O)C4CC4)cc3)n2)n[nH]1 [Tozasertib] (partner 0.1 µM) , thanks.
Marked response: 0.379

Exam item: Need relative viability of Nc1ccn([C@@H]2O[C@H](CO)[C@@H](O)[C@@H]2O)c(=O)n1 [Cytarabine] + Cc1nc(NC(=O)N2CCC[C@H]2C(N)=O)sc1-c1ccnc(C(C)(C)C(F)(F)F)c1 [Alpelisib] (partner 2 µM) , thanks.
Marked response: 0.429

Exam item: Need relative viability of Nc1ccn([C@@H]2O[C@H](CO)[C@@H](O)[C@@H]2O)c(=O)n1 [Cytarabine] + NC(=O)Nc1cc(-c2cccc(F)c2)sc1C(=O)N[C@H]1CCCNC1 [AZD7762] (partner 0.2 µM) , thanks.
Marked response: 0.332

Exam item: Need relative viability of Nc1ccn([C@@H]2O[C@H](CO)[C@@H](O)[C@@H]2O)c(=O)n1 [Cytarabine] + N=C(N)NC(=N)NCCc1ccccc1 [Phenformin] (partner 250 µM) , thanks.
Marked response: 0.113

Exam item: Need relative viability of Nc1ccn([C@@H]2O[C@H](CO)[C@@H](O)[C@@H]2O)c(=O)n1 [Cytarabine] + Nc1ncn([C@H]2C[C@H](O)[C@@H](CO)O2)c(=O)n1 [Decitabine] (partner 2 µM) , thanks.
Marked response: 0.748

====

Tested on: LC-2-ad
PROCEDURE_TEXT: relative viability (nuclei count vs DMSO), 5 days (fraction); higher = more cells survive
STATED_CONDITIONS: first compound 158.11 µM
# maps each entry to its relative viability
Please reply with the value in numeric form only.

Below, 2 molecules whose answers are already recorded.
MOLECULE	EXPERIMENTAL_ENDPOINT	ASSAY_VALUE
O=C(O)CCCCC(CCSCc1ccccc1)SCc1ccccc1 (stereo not drawn) [CPI-613] + N=C(N)NC(=N)NCCc1ccccc1 [Phenformin] (partner 250 µM)	relative viability	0.396
O=C(O)CCCCC(CCSCc1ccccc1)SCc1ccccc1 (stereo not drawn) [CPI-613] + NC(=O)Nc1cc(-c2cccc(F)c2)sc1C(=O)N[C@H]1CCCNC1 [AZD7762] (partner 0.2 µM)	relative viability	0.283

// next entry
Exam item: Need relative viability of O=C(O)CCCCC(CCSCc1ccccc1)SCc1ccccc1 (stereo not drawn) [CPI-613] + Nc1ncn([C@H]2C[C@H](O)[C@@H](CO)O2)c(=O)n1 [Decitabine] (partner 2 µM) , thanks.
Marked response: 0.578

====

Test system: NCI-H1755
PROCEDURE_TEXT: relative viability (nuclei count vs DMSO), 5 days (fraction); higher = more cells survive
STATED_CONDITIONS: first compound 0.006325 µM
# maps each entry to its relative viability
Please reply with the value in numeric form only.

Below, 5 molecules whose answers are already recorded.
MOLECULE	ASSAY_VALUE
CC(=O)O[C@@]12CO[C@@H]1C[C@H](O)[C@@]1(C)C(=O)[C@H](O)C3=C(C)[C@@H](OC(=O)[C@H](O)[C@@H](NC(=O)OC(C)(C)C)c4ccccc4)C[C@@](O)([C@@H](OC(=O)c4ccccc4)[C@H]21)C3(C)C [Docetaxel] + Cc1nc(Nc2ncc(C(=O)Nc3c(C)cccc3Cl)s2)cc(N2CCN(CCO)CC2)n1 [Dasatinib] (partner 0.075 µM)	0.286
CC(=O)O[C@@]12CO[C@@H]1C[C@H](O)[C@@]1(C)C(=O)[C@H](O)C3=C(C)[C@@H](OC(=O)[C@H](O)[C@@H](NC(=O)OC(C)(C)C)c4ccccc4)C[C@@](O)([C@@H](OC(=O)c4ccccc4)[C@H]21)C3(C)C [Docetaxel] + COc1cccc2cc(-c3nc([C@H]4CC[C@H](C(=O)O)CC4)n4ncnc(N)c34)[nH]c12 [OSI-027] (partner 0.5 µM)	0.39
CC(=O)O[C@@]12CO[C@@H]1C[C@H](O)[C@@]1(C)C(=O)[C@H](O)C3=C(C)[C@@H](OC(=O)[C@H](O)[C@@H](NC(=O)OC(C)(C)C)c4ccccc4)C[C@@](O)([C@@H](OC(=O)c4ccccc4)[C@H]21)C3(C)C [Docetaxel] + CC(=O)Nc1cccc(-n2c(=O)n(C3CC3)c(=O)c3c(Nc4ccc(I)cc4F)n(C)c(=O)c(C)c32)c1 [Trametinib] (partner 0.02 µM)	0.415
CC(=O)O[C@@]12CO[C@@H]1C[C@H](O)[C@@]1(C)C(=O)[C@H](O)C3=C(C)[C@@H](OC(=O)[C@H](O)[C@@H](NC(=O)OC(C)(C)C)c4ccccc4)C[C@@](O)([C@@H](OC(=O)c4ccccc4)[C@H]21)C3(C)C [Docetaxel] + Nc1nc2[nH]cc(CCc3ccc(C(=O)N[C@@H](CCC(=O)O)C(=O)O)cc3)c2c(=O)[nH]1 [Pemetrexed] (partner 0.2 µM)	0.367
CC(=O)O[C@@]12CO[C@@H]1C[C@H](O)[C@@]1(C)C(=O)[C@H](O)C3=C(C)[C@@H](OC(=O)[C@H](O)[C@@H](NC(=O)OC(C)(C)C)c4ccccc4)C[C@@](O)([C@@H](OC(=O)c4ccccc4)[C@H]21)C3(C)C [Docetaxel] + N=C(N)NC(=N)NCCc1ccccc1 [Phenformin] (partner 250 µM)	0.434

Exam item: Need relative viability of CC(=O)O[C@@]12CO[C@@H]1C[C@H](O)[C@@]1(C)C(=O)[C@H](O)C3=C(C)[C@@H](OC(=O)[C@H](O)[C@@H](NC(=O)OC(C)(C)C)c4ccccc4)C[C@@](O)([C@@H](OC(=O)c4ccccc4)[C@H]21)C3(C)C [Docetaxel] + C[C@]1(O)C[C@@H](c2nc(-c3ccc4ccc(-c5ccccc5)nc4c3)c3c(N)nccn32)C1 [Linsitinib] (partner 1 µM) , thanks.
Marked response: 0.384

Exam item: Need relative viability of CC(=O)O[C@@]12CO[C@@H]1C[C@H](O)[C@@]1(C)C(=O)[C@H](O)C3=C(C)[C@@H](OC(=O)[C@H](O)[C@@H](NC(=O)OC(C)(C)C)c4ccccc4)C[C@@](O)([C@@H](OC(=O)c4ccccc4)[C@H]21)C3(C)C [Docetaxel] + O=C(CCCCCCC(=O)Nc1ccccc1)NO [Vorinostat] (partner 1 µM) , thanks.
Marked response: 0.479

Exam item: Need relative viability of CC(=O)O[C@@]12CO[C@@H]1C[C@H](O)[C@@]1(C)C(=O)[C@H](O)C3=C(C)[C@@H](OC(=O)[C@H](O)[C@@H](NC(=O)OC(C)(C)C)c4ccccc4)C[C@@](O)([C@@H](OC(=O)c4ccccc4)[C@H]21)C3(C)C [Docetaxel] + Nc1ncn([C@H]2C[C@H](O)[C@@H](CO)O2)c(=O)n1 [Decitabine] (partner 2 µM) , thanks.
Marked response: 0.463
